Tested Target: hDGAT1 (Homo sapiens)
Construct: host or cells: Sf9 insect cells (baculovirus); microsomal preparation
Method: In-vitro DGAT1 assay (hDGAT1 microsomes from Sf9 cells, 14C oleoyl CoA, triglyceride formation)
Type: biochemical
Test Conditions: At 10 μM
Measured inhibition at 10 µM by item

Consider the worked cases shown below.
Compound	inhibition at 10 µM
COC(=O)C(CC(C)C)NC(=O)c1cc(-c2ccc(NC(=O)Nc3ccc(F)cc3F)cc2)no1 (stereo not shown)	0 to 50%
COC(=O)[C@@H]1CCCN1C(=O)c1cc(-c2cccc(Nc3nc4ccc(F)cc4s3)c2)no1	0 to 50%
COC(=O)[C@@H](NC(=O)c1onc(-c2ccc(NC(=O)Nc3ccc(F)cc3)cc2)c1-c1ccccc1)C(C)C	0 to 50%
CC(C)C(NC(=O)c1cc(-c2ccc(NC(=O)Nc3ccc(F)cc3F)cc2)no1)C(=O)O (stereo not shown)	75 to 100%
COC(=O)[C@H](CC(C)C)NC(=O)c1onc(-c2ccc(Nc3nc4ccc(F)cc4s3)cc2)c1-c1ccccc1	0 to 50%
CC(C)C(NC(=O)c1nc(-c2ccc(NC(=O)Nc3ccc(F)cc3F)cc2)no1)C(=O)O (stereo not shown)	75 to 100%
COC(=O)C(CC(C)C)NC(=O)c1cc(-c2ccc(NC(=O)Nc3ccc(F)cc3F)cc2C)no1 (stereo not shown)	0 to 50%
O=C(O)c1cc(-c2ccc(Nc3nc4ccc(F)cc4s3)cc2)no1	0 to 50%
COC(=O)[C@@H](NC(=S)c1cc(-c2ccc(Nc3nc4ccc(F)cc4s3)cc2)no1)c1ccccc1	0 to 50%

Can you share its inhibition at 10 µM? I mean this compound: CC(C)CC(NC(=O)c1cc(-c2ccc(NC(=O)NCc3ccccc3)cc2)no1)C(=O)O (stereo not shown)
0 to 50%

====

Measured inhibition at 5 µM by item
Tested Target: hDGAT1 (Homo sapiens)
Construct: host or cells: Sf9 insect cells (baculovirus); microsomal preparation
Sequence (O75907 1-488): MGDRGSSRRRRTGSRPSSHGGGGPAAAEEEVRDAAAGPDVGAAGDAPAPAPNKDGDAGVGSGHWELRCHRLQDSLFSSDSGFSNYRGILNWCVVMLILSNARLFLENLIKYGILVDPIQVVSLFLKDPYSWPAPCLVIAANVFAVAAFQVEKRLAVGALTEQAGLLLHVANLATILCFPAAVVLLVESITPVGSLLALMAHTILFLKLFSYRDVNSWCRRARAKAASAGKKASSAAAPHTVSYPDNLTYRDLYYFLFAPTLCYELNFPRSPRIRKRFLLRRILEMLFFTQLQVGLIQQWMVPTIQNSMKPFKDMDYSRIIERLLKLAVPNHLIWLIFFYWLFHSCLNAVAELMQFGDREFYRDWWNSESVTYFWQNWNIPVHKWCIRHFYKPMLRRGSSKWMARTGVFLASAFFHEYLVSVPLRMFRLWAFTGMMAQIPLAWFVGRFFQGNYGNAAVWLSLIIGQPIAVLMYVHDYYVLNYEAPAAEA
Method: In-vitro DGAT1 assay (hDGAT1 microsomes from Sf9 cells, 14C oleoyl CoA, triglyceride formation)
Type: biochemical
Test Conditions: At 5 μM

Consider the worked cases shown below.
Molecule	inhibition at 5 µM
COC(=O)[C@@H](NC(=O)c1cc(-c2ccc(NC(=O)Nc3ccccc3F)cc2F)no1)C(C)C	50 to 75%
COC(=O)C(Cc1ccccc1)NC(=O)c1cc(-c2ccc(NC(=O)Nc3ccc(F)cc3F)cc2)no1 (stereo not shown)	0 to 50%
COC(=O)[C@@H](NC(=O)c1nc(-c2ccc(NC(=O)Nc3ccccc3F)cc2)no1)C(C)C	0 to 50%
Cc1ccc(NC(=O)Nc2ccc(-c3cc(C(=O)NCCCC(=O)O)on3)cc2)cc1	50 to 75%
COC(=O)[C@@H](NC(=O)c1nc(-c2ccc(NC(=S)Nc3ccccc3)cc2)no1)C(C)C	0 to 50%
COC(=O)[C@@H](NC(=O)c1nc(-c2ccc(NC(=O)Nc3ccc(OC)cc3)cc2)no1)C(C)C	0 to 50%

Here's the next entry for you.
Can you share its inhibition at 5 µM? I mean this molecule: `COC(=O)[C@@H](NC(=O)c1nc(-c2ccc(NC(=O)NCc3ccccc3)cc2)no1)C(C)C`
0 to 50%

====

Tested Target: hDGAT1 (Homo sapiens, UniProt O75907)
Construct: host or cells: Sf9 insect cells (baculovirus); microsomal preparation
Sequence (O75907 1-488): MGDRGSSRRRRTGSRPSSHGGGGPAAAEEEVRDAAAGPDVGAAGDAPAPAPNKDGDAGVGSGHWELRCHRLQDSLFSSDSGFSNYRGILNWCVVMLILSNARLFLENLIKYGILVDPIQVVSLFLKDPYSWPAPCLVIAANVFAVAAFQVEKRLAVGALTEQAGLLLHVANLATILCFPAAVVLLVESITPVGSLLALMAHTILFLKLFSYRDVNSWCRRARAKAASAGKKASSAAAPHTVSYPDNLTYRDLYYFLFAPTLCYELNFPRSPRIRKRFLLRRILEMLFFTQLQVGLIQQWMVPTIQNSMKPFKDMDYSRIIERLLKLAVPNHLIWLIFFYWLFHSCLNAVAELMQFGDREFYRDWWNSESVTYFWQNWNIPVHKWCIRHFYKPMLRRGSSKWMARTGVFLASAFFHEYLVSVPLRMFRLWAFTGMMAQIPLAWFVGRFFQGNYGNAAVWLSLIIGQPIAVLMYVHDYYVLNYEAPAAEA
Method: In-vitro DGAT1 assay (hDGAT1 microsomes from Sf9 cells, 14C oleoyl CoA, triglyceride formation)
Type: biochemical
Test Conditions: At 1 μM
Assay Endpoint: inhibition at 1 µM

Consider the worked cases shown below.
Compound	Reported Measurement
CC(C)[C@H](NC(=O)c1cc(-c2ccc(NC(=O)Nc3cccc(Cl)c3F)cc2)no1)C(=O)O	75 to 100%
CC(C)[C@H](NC(=O)c1cc(-c2ccc(NC(=O)Nc3cc(C(F)(F)F)ccc3Cl)cc2)no1)C(=O)O	75 to 100%
COC(=O)[C@H](NC(=O)c1cc(-c2ccc(NC(=O)Nc3ccccc3C#N)cc2)no1)C(C)C	0 to 50%

Can you share its inhibition at 1 µM? I mean this compound: `CC(C)[C@H](NC(=O)c1csc(-c2ccc(NC(=O)Nc3ccc(F)cc3F)cc2)n1)C(=O)O`
0 to 50%

====

Tested Target: hDGAT1 (Homo sapiens, UniProt O75907)
Construct: host or cells: Sf9 insect cells (baculovirus); microsomal preparation
Method: In-vitro DGAT1 assay (hDGAT1 microsomes from Sf9 cells, 14C oleoyl CoA, triglyceride formation)
Format: biochemical
Test Conditions: At 5 μM
Measured inhibition at 5 µM by item

Molecule	inhibition at 5 µM
Cc1ccccc1NC(=O)Nc1ccc(-c2cc(C(=O)NC(C(=O)O)C(C)C)on2)cc1 (stereo not shown)	75 to 100%
Cc1ccccc1S(=O)(=O)NC(=O)Nc1ccc(-c2cc(C(=O)NC(C(=O)O)C(C)C)on2)cc1 (stereo not shown)	0 to 50%
COC(=O)[C@@H](NC(=O)c1nc(-c2ccc(NC(=S)NCc3ccccc3)cc2)no1)C(C)C	50 to 75%
COC(=O)[C@@H](NC(=O)c1cc(-c2ccc(NC(=O)Nc3cccc(C)c3)cc2)no1)C(C)C	50 to 75%
Cc1cc(F)ccc1NC(=O)Nc1ccc(-c2cc(C(=O)NC(C(=O)O)C(C)C)on2)cc1 (stereo not shown)	75 to 100%

Can you share its inhibition at 5 µM? I mean this molecule: Cc1ccc(NC(=O)Nc2ccc(-c3cc(C(=O)NC(Cc4ccccc4)C(=O)O)on3)cc2)cc1 (stereo not shown)
50 to 75%

Can you share its inhibition at 5 µM? I mean this molecule: `Cc1cccc(NC(=O)Nc2ccc(-c3cc(C(=O)N[C@H](C(=O)O)C(C)C)on3)cc2)c1`
75 to 100%

====

Tested Target: hDGAT1 (Homo sapiens)
Construct: host or cells: Sf9 insect cells (baculovirus); microsomal preparation
Method: In-vitro DGAT1 assay (hDGAT1 microsomes from Sf9 cells, 14C oleoyl CoA, triglyceride formation)
Assay type: biochemical
Test Conditions: At 5 μM
Measured inhibition at 5 µM by item

Consider the worked cases shown below.
Molecule	Reported Measurement
CC(C)[C@H](NC(=O)c1nc(-c2ccc(NC(=O)Nc3ccc(F)cc3)cc2)no1)C(=O)O [Example 343]	50 to 75%
CC(C)[C@H](NC(=O)c1cc(-c2ccc(NC(=S)Nc3ccccc3F)cc2)no1)C(=O)O [Example 270]	50 to 75%

Can you share its inhibition at 5 µM? I mean this molecule: COC(=O)C(NC(=O)c1cc(-c2ccc(NC(=O)Nc3ccc(F)cc3C)cc2)no1)C(C)C (stereo not shown) [Example 284]
50 to 75%

Can you share its inhibition at 5 µM? I mean this molecule: COC(=O)[C@@H](NC(=O)c1nc(-c2ccc(NC(=O)Nc3ccccc3)cc2)no1)C(C)C [Example 351]
0 to 50%

Can you share its inhibition at 5 µM? I mean this molecule: CC(C)C(NC(=O)c1cc(-c2ccc(NC(=O)Nc3cccc(C(F)(F)F)c3)cc2)no1)C(=O)O (stereo not shown) [Example 278]
75 to 100%

Can you share its inhibition at 5 µM? I mean this molecule: COC(=O)[C@@H](NC(=O)c1cc(-c2ccc(NC(=S)Nc3ccc(C)cc3)cc2)no1)C(C)C [Example 271]
0 to 50%

Can you share its inhibition at 5 µM? I mean this molecule: COC(=O)[C@H](Cc1ccc(O)cc1)NC(=O)c1cc(-c2ccc(NC(=O)Nc3ccc(C)cc3)cc2)no1 [Example 272]
0 to 50%

Source of measurements: patent US8835428B2
